Source of measurements: patent US11485736B2

half-life at 1 μM by entry:
MEASUREMENT PROTOCOL: Liver microsomal stability, rat liver microsomes
Format: in vitro ADME
APPLIED CONDITIONS: 1 μM compound, NADPH, read-out: t1/2 (min) in RLM

Here's what some known entries look like.
CCOc1nn(Cc2ccc(-c3nc(C(F)(F)F)cn3CC)cc2)c2nc(-c3c(OC)ncnc3C3CC3)ncc12 | > 25 min
COc1ncnc(C2CC2)c1-c1ncc2cnn(Cc3ccc(-c4nc(C(F)(F)F)cn4C(C)C)cc3)c2n1 | > 25 min
CCc1nc2cnc(-c3c(OC)ncnc3C3CC3)nc2n1Cc1ccc(-c2nc(C(F)(F)F)cn2C(C)C)cc1 | > 25 min
COc1ncnc(C2CC2)c1-c1ncc2cnn([C@H](C)c3ccc(-c4nc(C(F)(F)F)cn4C(C)C)cc3)c2n1 | < 25 min

Summary for this compound, `COCc1nc2cnc(-c3c(OC)ncnc3C3CC3)nc2n1Cc1ccc(-c2nc(C(F)(F)F)cn2C(C)C)cc1` : half-life at 1 μM is > 25 min

Summary for this compound, `COc1ncnc(C2CC2)c1-c1ncc2cnn(Cc3ccc(-c4nc(C(F)(F)F)cn4C(C)C)c(F)c3)c2n1` : half-life at 1 μM is > 25 min

Summary for this compound, COc1ncnc(C2CC2)c1-c1ncc2cnn([C@H](C)c3ccc(-c4nc(C(F)(F)F)cn4C)cc3)c2n1 (single isomer, unassigned) : half-life at 1 μM is < 25 min

====

MEASUREMENT PROTOCOL: ADME solubility determination at pH 2.0 and pH 7.4
Format: physicochemical
APPLIED CONDITIONS: phosphate buffered saline, aqueous buffer, thermodynamic from solid; PBS pH 7.4, shaken at 25° C. for 24 hours, LC-MS/MS; read-out: Solubility at pH 7.4
REPORTED METRIC: solubility at 24 h

Here's what some known entries look like.
COc1ncnc(C2CC2)c1-c1ncc2cnn(Cc3ccc(-c4nc(C(F)(F)F)cn4C4CN(C)C4)cc3)c2n1 | > 10 µM
Cc1ncnc(C(C)C)c1-c1ncc2cnn(Cc3ccc(-n4nc(C(F)(F)F)cc4C)cc3)c2n1 | < 10 µM
COc1ncnc(C2CC2)c1-c1ncc2cnn(Cc3ccc(-c4nc(C(F)(F)F)nn4C)cc3)c2n1 | < 10 µM

# context switch: different molecule, same solubility at 24 h
Summary for this molecule, `CCOc1ncnc(C2CC2)c1-c1ncc2cnn(Cc3ccc(-c4nc(C(F)(F)F)cn4C)cc3)c2n1` : solubility at 24 h is < 10 µM

====

half-life at 1 μM by entry:
MEASUREMENT PROTOCOL: Liver microsomal stability, rat liver microsomes
Format: in vitro ADME
APPLIED CONDITIONS: 1 μM compound, NADPH, read-out: t1/2 (min) in RLM

Here's what some known entries look like.
CCn1cc(C(F)(F)F)nc1-c1ccc(Cn2ncc3c(C)nc(-c4c(OC)ncnc4C4CC4)nc32)cc1 [Example 53] | > 25 min
COc1ncnc(C2CC2)c1-c1ncc2cnn(Cc3ccc(-n4nc(C(F)(F)F)cc4OC4CNC4)cc3)c2n1 [Example 200] | > 25 min
COc1ncnc(C2CC2)c1-c1ncc2cnn(Cc3ccc(-c4nc(C(F)(F)F)c(OC)n4C(C)C)cc3)c2n1 [Example 166] | < 25 min
COc1nc(C)c(-c2ncc3cnn(Cc4ccc(-c5nc(C(F)(F)F)cn5C)cc4)c3n2)c(OC)n1 [Example 111] | > 25 min
Cc1ncnc(C(C)C)c1-c1ncc2cnn(Cc3ccc(-n4nc(C(F)(F)F)cc4C)cc3)c2n1 [Example 45] | < 25 min
Cc1nn(Cc2ccc(-c3nc(C(F)(F)F)cn3C)cc2)c2nc(-c3ccccc3C(C)C)ncc12 [Example 25] | < 25 min
CCn1cc(C(F)(F)F)nc1-c1ccc(Cn2nc(SCc3ccc(OC)cc3)c3cnc(-c4c(OC)ncnc4C4CC4)nc32)cc1 [Example 192] | < 25 min
COc1nc(C)nc(C2CC2)c1-c1ncc2cnn(Cc3ccc(-c4nc(C(F)(F)F)cn4C)cc3)c2n1 [Example 133] | < 25 min
COc1ncnc(C2CC2)c1-c1ncc2cnn([C@@H](C)c3ccc(-c4nc(C(F)(F)F)cn4C)cc3)c2n1 (single isomer, unassigned) [Example 92] | > 25 min
COCCOc1ncnc(C2CC2)c1-c1ncc2cnn(Cc3ccc(-c4nc(C(F)(F)F)cn4C)cc3)c2n1 [Example 42] | < 25 min

Summary for this compound, CCn1cc(C(F)(F)F)nc1-c1ccc([C@H](C)n2ncc3cnc(-c4c(OC)ncnc4C(C)C)nc32)cc1 [Example 117] : half-life at 1 μM is < 25 min

Summary for this compound, COc1ncnc(C(C)(C)F)c1-c1ncc2cnn(Cc3ccc(-c4nc(C(F)(F)F)cn4C)cc3)c2n1 [Example 110] : half-life at 1 μM is > 25 min
